Let's look at some compounds and their measured pEC50.
Target: FSHR (Homo sapiens)
Sequence (P23945 18-695): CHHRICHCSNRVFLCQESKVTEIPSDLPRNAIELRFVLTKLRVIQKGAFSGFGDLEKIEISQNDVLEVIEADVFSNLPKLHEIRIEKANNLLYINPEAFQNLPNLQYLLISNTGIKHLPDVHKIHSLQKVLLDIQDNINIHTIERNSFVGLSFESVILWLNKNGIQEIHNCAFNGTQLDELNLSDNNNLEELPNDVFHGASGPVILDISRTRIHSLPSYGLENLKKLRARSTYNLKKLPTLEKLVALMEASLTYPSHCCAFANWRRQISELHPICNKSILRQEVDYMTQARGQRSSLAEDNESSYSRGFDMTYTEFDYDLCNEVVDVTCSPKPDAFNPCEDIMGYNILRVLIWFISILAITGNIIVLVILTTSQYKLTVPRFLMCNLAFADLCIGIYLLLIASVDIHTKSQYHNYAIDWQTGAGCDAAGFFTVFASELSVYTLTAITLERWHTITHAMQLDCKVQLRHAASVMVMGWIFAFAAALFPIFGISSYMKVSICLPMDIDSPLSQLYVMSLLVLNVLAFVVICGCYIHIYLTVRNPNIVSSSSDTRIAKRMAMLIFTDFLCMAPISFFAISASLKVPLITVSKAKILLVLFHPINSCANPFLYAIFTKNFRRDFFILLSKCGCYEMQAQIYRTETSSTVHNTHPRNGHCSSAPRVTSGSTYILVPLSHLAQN
Test: EC50 of cyclic AMP production in CHO FSHR cells + EC20 FSH (Assay A)
Details: CHO-FSHR-LUC cells, in presence of EC20 FSH, cAMP HTRF, 1 h 37° C.
pEC50: −log10 of the molar value.

For orientation, consider the following solved cases.
COc1cc2c(cc1OC(C)C)-n1c(C3CCCC3)nc(C(=O)N3CCOCC3(C)C)c1CC2 = 6.00 to 7.00
COc1cc2c(cc1OC(C)C)-n1c(-c3ccc(C#N)cc3)nc(C(=O)N(C)C(C)(C)C)c1CC2 = 5.30 to 6.00
COc1cc2c(cc1-c1ccn(C)n1)-n1c(-c3ccc(C)s3)nc(C(=O)N3CCOCC3(C)C)c1CC2 = 6.00 to 7.00
COc1cc2c(cc1OC(C)C)-n1c(-c3ccsc3)nc(C(=O)N(C)C(C)(C)C)c1CC2 = 6.00 to 7.00
COc1cc2c(cc1OC(C)C)-n1c(-c3c(C)nn(C)c3C)nc(C(=O)N3CCOCC3(C)C)c1CC2 = < 5.30

Tell me the measured pEC50 of COc1cc2c(cc1OC(C)C)-n1c(-c3cncs3)nc(C(=O)N3CCCN(C(=O)N4CCC4)CC3)c1CC2 , please.
5.30 to 6.00

Tell me the measured pEC50 of COc1cc2c(cc1CC(C)C)-n1c(S(=O)(=O)C3CC3)nc(C(=O)N(C)C(C)(C)C)c1CC2 , please.
6.00 to 7.00

* * *

Let's look at some molecules and their measured EC50.
target: follicle-stimulating hormone (FSH) receptor (Rattus norvegicus, UniProt P20395); construct: Rat Granulosa EC50 FSH (Assay B); endogenous in cells; experiment: Rat Granulosa EC50 FSH (Assay B); conditions: rat granulosa cells, per Yanofsky et al. 2006

COc1cc2c(cc1-c1cnn(C)c1)-n1c(-c3cccs3)nc(C(=O)N3CCOCC3(C)C)c1CC2 = 100 to 1000 nM

Tell me the measured EC50 of COc1cc2c(cc1-c1ccn(C)c1)-n1c(-c3cccs3)nc(C(=O)N3CCOCC3(C)C)c1CC2 , please.
> 5000 nM

Tell me the measured EC50 of COc1cc2c(cc1OC(C)C)-n1c(C3=CCCC3)nc(C(=O)N3CCOCC3(C)C)c1CC2 , please.
> 5000 nM

Tell me the measured EC50 of COc1cc2c(cc1OC(C)C)-n1c(-c3ccc(F)s3)nc(C(=O)N3CCOCC3(C)C)c1CC2 , please.
100 to 1000 nM

Tell me the measured EC50 of COc1cc2c(cc1OC(C)C)-n1c(-c3ccsc3)nc(C(=O)N(C)C(C)(C)C)c1CO2 , please.
> 5000 nM

Tell me the measured EC50 of COc1cc2c(cc1OC(C)C)-n1c(-c3cc(Cl)cc(Cl)c3)nc(C(=O)N3CCOCC3(C)C)c1CC2 , please.
100 to 1000 nM

Tell me the measured EC50 of COc1cc2c(cc1CC(C)C)-n1c(-c3ccc(C)s3)nc(C(=O)N(C)C(C)(C)C)c1CC2 , please.
1000 to 5000 nM

* * *

biological target: follicle-stimulating hormone (FSH) receptor (Rattus norvegicus); construct: Rat Granulosa EC50 FSH (Assay B); endogenous in cells; assay: Rat Granulosa EC50 FSH (Assay B); details: rat granulosa cells, per Yanofsky et al. 2006
Reported metric: EC50

For orientation, consider the following solved cases.
COc1cc2c(cc1CC(C)C)-n1c(-c3ccc(Cl)s3)nc(C(=O)N(C)C(C)(C)C)c1CC2 = 0.1 to 1 µM
COc1cc2c(cc1CC(C)C)-n1c(-c3ccc(F)s3)nc(C(=O)N(C)C(C)(C)C)c1CC2 = 1 to 5 µM
[2H]C([2H])([2H])Oc1cc2c(cc1CC(C)C)-n1c(-c3cccs3)nc(C(=O)N(C)C(C)(C)C)c1CC2 = 1 to 5 µM
COc1cc2c(cc1-c1ccn(C)n1)-n1c(-c3cccc(Cl)c3)nc(C(=O)N3CCOCC3(C)C)c1CC2 = 1 to 5 µM
COc1cc2c(cc1OC(C)C)-n1c(-c3cc(C)cs3)nc(C(=O)N3CCOCC3(C)C)c1CC2 = 1 to 5 µM

EC50 of COc1cc2c(cc1-c1c[nH]nc1C)-n1c(-c3ccsc3)nc(C(=O)N(C)C(C)(C)C)c1CC2 on follicle-stimulating hormone (FSH) receptor (Rattus norvegicus)?
0.1 to 1 µM

EC50 of COc1cc2c(cc1OC(C)C)-n1c(-c3ccc(F)c(F)c3)nc(C(=O)N3CCOCC3(C)C)c1CC2 on follicle-stimulating hormone (FSH) receptor (Rattus norvegicus)?
1 to 5 µM

EC50 of COc1cc2c(cc1OC(C)C)-n1c(-c3cc(Cl)cs3)nc(C(=O)N3CCOCC3(C)C)c1CC2 on follicle-stimulating hormone (FSH) receptor (Rattus norvegicus)?
0.1 to 1 µM

EC50 of COc1cc2c(cc1OC(C)C)-n1c(-c3cccn3C)nc(C(=O)N3CCOCC3(C)C)c1CC2 on follicle-stimulating hormone (FSH) receptor (Rattus norvegicus)?
> 5 µM

EC50 of COc1cc2c(cc1CC(C)C)-n1c(-c3ccc[nH]3)nc(C(=O)N3CCOCC3(C)C)c1CC2 on follicle-stimulating hormone (FSH) receptor (Rattus norvegicus)?
> 5 µM

* * *

molecular target: FSHR (Homo sapiens, UniProt P23945); construct: expressed in transfected cells; host or cells: CHO cells, clone Cho-FSHR-LUC-1-1-43; assay: EC50 of cyclic AMP production in CHO FSHR cells + EC20 FSH (Assay A); assay type: cell-based; conditions: CHO-FSHR-LUC cells, in presence of EC20 FSH, cAMP HTRF, 1 h 37° C.
pEC50: −log10 of the molar value.
Let's look at some compounds and their measured pEC50.

For orientation, consider the following solved cases.
COc1cc2c(cc1OC(C)C)-n1c(-c3cccs3)nc(C(=O)N(C)C(C)(C)C)c1CC2 [Compound 11] = 6.00 to 7.00
COc1cc2c(cc1OC(C)C)-n1c(-c3cc(Cl)cc(Cl)c3)nc(C(=O)N3CCOCC3(C)C)c1CC2 [Compound 110] = > 7.00

Tell me the measured pEC50 of COc1cc2c(cc1OC(C)C)-n1c(-c3cscc3C)nc(C(=O)N3CCOCC3(C)C)c1CC2 [Compound 120] , please.
> 7.00

Tell me the measured pEC50 of [2H]C([2H])([2H])Oc1cc2c(cc1CC(C)C)-n1c(-c3ccsc3)nc(C(=O)N3CCOCC3(C)C)c1CC2 [Compound 41] , please.
> 7.00

Tell me the measured pEC50 of COc1cc2c(cc1-c1cccnc1)-n1c(-c3ccsc3)nc(C(=O)N(C)C(C)(C)C)c1CC2 [Compound 8] , please.
> 7.00

Tell me the measured pEC50 of COc1cc2c(cc1OC(C)C)-n1c(C3=CCCN(C)C3)nc(C(=O)N3CCOCC3(C)C)c1CC2 [Compound 93] , please.
< 5.30

Tell me the measured pEC50 of COc1cc2c(cc1OC(C)C)-n1c(-c3ccsc3C)nc(C(=O)N3CCOCC3(C)C)c1CC2 [Compound 106] , please.
6.00 to 7.00

* * *

Molecular target: follicle-stimulating hormone (FSH) receptor (Rattus norvegicus)
Construct: Rat Granulosa EC50 FSH (Assay B); endogenous in cells
Sequence (P20395 18-692): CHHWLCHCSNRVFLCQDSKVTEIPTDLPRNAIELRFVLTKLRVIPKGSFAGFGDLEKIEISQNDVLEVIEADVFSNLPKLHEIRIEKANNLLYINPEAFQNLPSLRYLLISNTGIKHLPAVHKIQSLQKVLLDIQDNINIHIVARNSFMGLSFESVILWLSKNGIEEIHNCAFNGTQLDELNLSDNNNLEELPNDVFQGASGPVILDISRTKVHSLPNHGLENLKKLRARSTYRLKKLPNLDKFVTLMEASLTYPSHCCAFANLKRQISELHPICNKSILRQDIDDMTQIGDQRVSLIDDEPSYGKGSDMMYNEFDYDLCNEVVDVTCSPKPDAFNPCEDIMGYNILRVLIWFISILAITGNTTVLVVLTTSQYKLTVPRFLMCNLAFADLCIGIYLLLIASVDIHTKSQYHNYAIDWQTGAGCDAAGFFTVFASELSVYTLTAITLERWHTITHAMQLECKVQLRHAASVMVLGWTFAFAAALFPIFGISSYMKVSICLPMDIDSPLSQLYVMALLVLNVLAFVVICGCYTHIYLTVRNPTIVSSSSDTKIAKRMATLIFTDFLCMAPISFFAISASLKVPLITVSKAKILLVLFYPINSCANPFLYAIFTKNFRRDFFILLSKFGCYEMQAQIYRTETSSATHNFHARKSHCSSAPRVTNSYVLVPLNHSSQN
Test: Rat Granulosa EC50 FSH (Assay B)
Details: rat granulosa cells, per Yanofsky et al. 2006
Reported metric: EC50

For orientation, consider the following solved cases.
COc1cc2c(cc1OC(C)C)-n1c(-c3ccc(Cl)s3)nc(C(=O)N3CCOCC3(C)C)c1CC2 = < 0.1 µM
COc1cc2c(cc1OC(C)C)-n1c(-c3cccc(Cl)c3F)nc(C(=O)N3CCOCC3(C)C)c1CC2 = 0.1 to 1 µM
COc1cc2c(cc1OC(C)C)-n1c(-c3ccc(C)s3)nc(C(=O)N3CCOCC3(C)C)c1CC2 = 0.1 to 1 µM

Could you now consider this next compound?
Tell me the measured EC50 of COc1cc2c(cc1OC(C)C)-n1c(-c3ccsc3)nc(C(=O)N3CCCN(C(=O)C4CCC4)CC3)c1CC2 , please.
< 0.1 µM
